Test: Pharmacokinetics from metabolite-corrected arterial plasma TACs after oral administration
Type: in vivo, Sprague Dawley Rats
Conditions: Sprague Dawley, rat, arterial plasma, 5 mg/Kg, read-out: t1/2 terminal half-life
Method: Anaesthesia was induced with 5% isoflurane (IsoFlo®, Abbott Laboratories, Abbott Park, IL, USA) and maintained by 2% of isoflurane in 100% O2. […] The femoral artery catheter, the gamma detector, the peristaltic pump, and the femoral vein catheter were thus connected in series, to enable the extracorporeal circulation of blood (flow 150 μL/s from femoral artery to femoral vein) and continuous measurement of radioactivity in the blood (Figure 1). […]
Readout Label: half-life (min)
Expressed in min, but write only the number.

Form field half-life, entry COc1ccc(SCc2cn(CCN(C)C)nn2)cc1 [AHK2] : 13

====

Assay: Pharmacokinetics from metabolite-corrected arterial plasma TACs after intravenous administration
Format: in vivo, Sprague Dawley Rats
Details: Sprague Dawley, rat, arterial plasma; intravenous, both groups (1 µg/Kg and 5 mg/Kg) pooled together; read-out: MRT mean residence time (converted)
Description: Anaesthesia was induced with 5% isoflurane (IsoFlo®, Abbott Laboratories, Abbott Park, IL, USA) and maintained by 2% of isoflurane in 100% O2. […] The femoral artery catheter, the gamma detector, the peristaltic pump, and the femoral vein catheter were thus connected in series, to enable the extracorporeal circulation of blood (flow 150 μL/s from femoral artery to femoral vein) and continuous measurement of radioactivity in the blood (Figure 1). […]
Readout Label: MRT (min)
Expressed in min, but write only the number.

Form field MRT, entry COc1ccc(SCc2cn(CCN(C)C)nn2)cc1 [AHK2] : 8.53

====

Experiment: Pharmacokinetics from metabolite-corrected arterial plasma TACs after intravenous administration
Assay type: in vivo, Sprague Dawley Rats
Settings: Sprague Dawley, rat, arterial plasma, 1 ug/kg; intravenous, 1 µg/Kg, n = 5; read-out: MRT mean residence time (converted)
Readout Label: MRT (min)
Expressed in min, but write only the number.

Form field MRT, entry COc1ccc(SCc2cn(CCN(C)C)nn2)cc1 : 8.48

====

Test: Pharmacokinetics from metabolite-corrected arterial plasma TACs after intravenous administration
Assay type: in vivo, Sprague Dawley Rats
Conditions: Sprague Dawley, rat, arterial plasma, iv, 5 mg/kg, intravenous, 5 mg/Kg, n = 5; read-out: Vz volume of distribution based on the terminal slope
Readout Label: Vd (L)
Expressed in L, but write only the number.

Form field Vd, entry COc1ccc(SCc2cn(CCN(C)C)nn2)cc1 : 2.34

====

Test: Pharmacokinetics from metabolite-corrected arterial plasma TACs after intravenous administration
Type: in vivo, Sprague Dawley Rats
Settings: Sprague Dawley, rat, arterial plasma, iv, both groups (1 µg/Kg and 5 mg/Kg) pooled together; read-out: t1/2 terminal half-life
Readout Label: half-life (min)
Expressed in min, but write only the number.

Form field half-life, entry COc1ccc(SCc2cn(CCN(C)C)nn2)cc1 [AHK2] : 12.6

====

Assay: Pharmacokinetics from metabolite-corrected arterial plasma TACs after intravenous administration
Assay type: in vivo, Sprague Dawley Rats
Conditions: Sprague Dawley, rat, arterial plasma, iv, both groups (1 µg/Kg and 5 mg/Kg) pooled together; read-out: Vz volume of distribution based on the terminal slope
Readout Label: Vd (L)
Expressed in L, but write only the number.

Form field Vd, entry COc1ccc(SCc2cn(CCN(C)C)nn2)cc1 [AHK2] : 2.17

====

Assay: Pharmacokinetics from metabolite-corrected arterial plasma TACs after intravenous administration
Type: in vivo, Sprague Dawley Rats
Conditions: Sprague Dawley, rat, arterial plasma, iv, 1 ug/kg, intravenous, 1 µg/Kg, n = 5; read-out: Vss volume of distribution at the steady state
Readout Label: Vd
Please make sure the unit comes right after the number.

Form field Vd, entry COc1ccc(SCc2cn(CCN(C)C)nn2)cc1 : 1.03 L
